Tested on: 242566-281-R-J2-PDC complex spheroid viability;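 note: spheroids exposed to compound for 7 days before readout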
test-name: Anticancer human tumor 242566-281-R-J2-PDC patient-derived pancreatic carcinoma cell line growth inhibition [RAS]
details: second compound 0.3 µM; first compound 0.1 µM; active compounds read low
Mark true only when viability, T/C stays strictly below 60%. Values equal to the cut-off are false.

Here are 3 compounds together with their reported answers.
compound	assay-target	classification
CC(Nc1ccc2c(c1)OCCn1cc(N3C(=O)OCC3C(F)F)nc1-2)C(N)=O (configuration not stated) + CCn1c(-c2cccnc2C(C)OC)c2c3cc(ccc31)N1CCOC(CC(NC(=O)C(C(C)C)N(C)C(=O)C3(F)CCN(C(=O)C#CC(C)(C)N(C)C)CC3)C(=O)N3CCCC(N3)C(=O)OCC(C)(C)C2)C1	242566-281-R-J2-PDC complex spheroid viability	false
Nc1ccn(C2OC(CO)C(O)C2(F)F)c(=O)n1 (configuration not stated) + CCn1c(-c2cc(N3CCN(C)CC3)cnc2C(C)OC)c2c3cc(ccc31)-c1csc(n1)CC(NC(=O)C1CC1C)C(=O)N1CCCC(N1)C(=O)OCC(C)(C)C2	242566-281-R-J2-PDC complex spheroid viability	true
CC(Nc1ccc2c(c1)OCCn1cc(N3C(=O)OCC3C(F)F)nc1-2)C(N)=O (configuration not stated) + CCn1c(-c2cc(N3CCN(C)CC3)cnc2C(C)OC)c2c3cc(ccc31)-c1csc(n1)CC(NC(=O)C1CC1C)C(=O)N1CCCC(N1)C(=O)OCC(C)(C)C2	242566-281-R-J2-PDC complex spheroid viability	true

Query :: Does the reported viability, T/C of C[C@@H](NC(=O)c1ncnc(N)c1Cl)c1ncc(C(=O)Nc2cc(C(F)(F)F)c(Cl)cn2)s1 + CCn1c(-c2cc(N3CCN(C)CC3)cnc2C(C)OC)c2c3cc(ccc31)-c1csc(n1)CC(NC(=O)C1CC1C)C(=O)N1CCCC(N1)C(=O)OCC(C)(C)C2 stay below 60%?
Result :: true

Query :: Does the reported viability, T/C of C=CC(=O)N1CCN(c2nc(OCC3CCCN3C)nc3c(F)c(-c4nc(N)cc(C)c4C(F)(F)F)c(Cl)cc23)C(C)C1 (configuration not stated) + CCn1c(-c2cc(N3CCN(C)CC3)cnc2C(C)OC)c2c3cc(ccc31)-c1csc(n1)CC(NC(=O)C1CC1C)C(=O)N1CCCC(N1)C(=O)OCC(C)(C)C2 stay below 60%?
Result :: true

Query :: Does the reported viability, T/C of CC1(O)CCCC1n1c(=O)c(C(F)F)cc2cnc(NC3CCN(S(C)(=O)=O)CC3)nc21 (configuration not stated) + CCn1c(-c2cc(N3CCN(C)CC3)cnc2C(C)OC)c2c3cc(ccc31)-c1csc(n1)CC(NC(=O)C1CC1C)C(=O)N1CCCC(N1)C(=O)OCC(C)(C)C2 stay below 60%?
Result :: true
